Source: patent US20240041877A1

assay: Study KAR5585-101 Part 1 (SAD): plasma pharmacokinetics after a single oral dose of KAR5585, fasting and fed (incl. dose proportionality and food effect); settings: human, plasma, po, 1200 mg, Cmax, 1200 mg KAR5585 single oral, fasted, Cohort 5; Mean
quantity: Cmax
The answer should read as a number with its unit following.

Consider the compound CCOC(=O)[C@@H]1CC2(CCN(c3cc(O[C@H](c4ccc(Cl)cc4-c4ccccc4)C(F)(F)F)nc(N)n3)CC2)CN1 and give its measured Cmax.
83 ng/mL

====

Can you tell me Cmax for the items I'm about to list?
assay: Study KAR5585-101 Part 1 (SAD): plasma pharmacokinetics after a single oral dose of KAR5585, fasting and fed (incl. dose proportionality and food effect); settings: human, plasma, po, 400 mg, Cmax, Geometric Mean, Cohort 3A (Fasting), 400 mg KAR5585 single oral dose, fasting
Numbers only, in ng/mL.

Nc1nc(O[C@H](c2ccc(Cl)cc2-c2ccccc2)C(F)(F)F)cc(N2CCC3(CC2)CN[C@H](C(=O)O)C3)n1
444

Data request, read-out Cmax, for CCOC(=O)[C@@H]1CC2(CCN(c3cc(O[C@H](c4ccc(Cl)cc4-c4ccccc4)C(F)(F)F)nc(N)n3)CC2)CN1
42
